System: primary human leukemia cells from 5 individual patients
Assay Procedure: Ex vivo killing of primary human leukemia cells
Assay type: cell-based
Assay Context: comparable inhibitor concentrations; 18–20 hr
Measurement Label: leukemia cell apoptosis

Molecule	Measurement Label	Value Reported
Cn1ncc(-c2nc(NC3CCC(N)CC3)ncc2Cl)c1CC1CC1 (stereo not shown)	leukemia cell apoptosis	leukemia cell apoptosis
Cn1ncc(-c2nc(NC3CCC(N)CC3)ncc2F)c1CC1CC1 (stereo not shown)	leukemia cell apoptosis	leukemia cell apoptosis
